Data origin: patent US12257247B2

Biological target: VAV1 (Homo sapiens, UniProt P15498+Q96SW2)
Construct: A heterozygous VAV1 C-terminal HiBiT knock-in pool was generated at Monte Rosa Therapeutics from a clonal Jurkat cell; endogenous in cells; host or cells: Jurkat clone stably expressing LgBiT, homozygous GSPT1-G575N; heterozygous VAV1-HiBiT knock-in pool
Experiment: VAV1 degradation activity, VAV1-HiBiT knock-in Jurkat luminescence assay (Example A, Table 1)
Format: cell-based
Conditions: VAV1-HiBiT knock-in Jurkat cells, luminescence read at 6 and 24 hours; read-out: VAV1 DC50 (nM), class

compound | DC50
CC1CCN(c2ccc(-c3cccc(C4CCC(=O)NC4=O)c3Cl)cc2)C(=O)C1 (stereo not drawn) [Compound 332] | ≤ 100 nM
Cn1ccc(COc2ccc(-c3cccc([C@@H]4CCC(=O)NC4=O)c3Cl)cc2)n1 [Compound 209] | ≤ 100 nM
O=C1CCC(c2cccc(-c3ccc(N4CCC5(COC5)CC4=O)cc3)c2Cl)C(=O)N1 (stereo not drawn) [Compound 310] | ≤ 100 nM
C[C@@H]1CCC(=O)N1c1ccc(-c2cccc(C3CCC(=O)NC3=O)c2Cl)cc1 (stereo partly drawn) [Compound 303] | ≤ 100 nM
O=C1CCC(c2cccc(-c3ccc(N4C(=O)CCCC45CC5)c(F)c3)c2Cl)C(=O)N1 (stereo not drawn) [Compound 350] | ≤ 100 nM
CN1CCCN(Cc2ccc(-c3cccc(C4CCC(=O)NC4=O)c3Cl)cn2)C1=O (stereo not drawn) [Compound 432] | 100 to 1000 nM
CN1CC(=O)N(Cc2ccc(-c3cccc(C4CCC(=O)NC4=O)c3Cl)cc2)CC12COC2 (stereo not drawn) [Compound 259] | ≤ 100 nM
Nc1nccn1Cc1ccc(-c2cccc(C3CCC(=O)NC3=O)c2Cl)cc1 (stereo not drawn) [Compound 102] | 100 to 1000 nM
O=C1CCC(c2cccc(-c3ccc(Cn4ccccc4=O)cc3)c2)C(=O)N1 (stereo not drawn) [Compound 239] | 100 to 1000 nM
CN(C)CCOc1ccc(-c2cccc(C3CCC(=O)NC3=O)c2Cl)cc1 (stereo not drawn) [Compound 135] | > 1000 nM
CN1CC(=O)N(c2ccc(-c3cccc(C4CCC(=O)NC4=O)c3Cl)cc2)CC1(C)C (stereo not drawn) [Compound 317] | ≤ 100 nM
O=C1CCC(c2cccc(-c3ccc(N4C(=O)CCC45COC5)cc3)c2Cl)C(=O)N1 (stereo not drawn) [Compound 355] | ≤ 100 nM
CC(Oc1ccc(-c2cccc(C3CCC(=O)NC3=O)c2Cl)cc1)c1ccn(C)n1 (stereo not drawn) [Compound 173] | ≤ 100 nM
O=C1CCC(c2cccc(-c3ccc(CN4CCN5CCCC5C4=O)cc3)c2Cl)C(=O)N1 (stereo not drawn) [Compound 261] | 100 to 1000 nM
O=C1CCC(c2cccc(-c3ccc(N4C(=O)CCCC45CC5)nc3)c2Cl)C(=O)N1 (stereo not drawn) [Compound 389] | ≤ 100 nM
Cn1ccc(COc2ccc(-c3cccc(C4CCC(=O)NC4=O)c3Cl)c(Cl)c2)n1 (stereo not drawn) [Compound 177] | > 1000 nM
O=C1CCC(c2cccc(-c3ccc(CN4C(=O)COCC45CC5)cc3)c2Cl)C(=O)N1 (stereo not drawn) [Compound 264] | ≤ 100 nM
COc1cc(-c2cccc(C3CCC(=O)NC3=O)c2Cl)ccc1C (stereo not drawn) [Compound 132] | 100 to 1000 nM
